SYSTEM TESTED: Human Myelin Basic Protein (Homo sapiens, UniProt P02686)
ASSAY COMMENT: phage display, NGS count
Sequence (P02686 135-304 limits assumed): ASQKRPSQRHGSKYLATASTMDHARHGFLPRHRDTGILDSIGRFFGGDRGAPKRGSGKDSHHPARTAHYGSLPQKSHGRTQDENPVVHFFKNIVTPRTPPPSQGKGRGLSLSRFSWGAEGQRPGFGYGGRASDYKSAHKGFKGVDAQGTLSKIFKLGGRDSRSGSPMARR
Entries annotated with measured Count
Form: value (number only, do not type unit).

Solved entries (count: 8):
>  <SUBSTANCE>
VPTLRIP (peptide)

>  <REPORTED RESULT>
8

$$$$
>  <SUBSTANCE>
SYVTVFR (peptide)

>  <REPORTED RESULT>
6

$$$$
>  <SUBSTANCE>
NGVSSSL (peptide)

>  <REPORTED RESULT>
6

$$$$
>  <SUBSTANCE>
YSSRLND (peptide)

>  <REPORTED RESULT>
6

$$$$
>  <SUBSTANCE>
QNTGLKW (peptide)

>  <REPORTED RESULT>
11

$$$$
>  <SUBSTANCE>
SVEYGQL (peptide)

>  <REPORTED RESULT>
9

$$$$
>  <SUBSTANCE>
AGSLLSL (peptide)

>  <REPORTED RESULT>
6

$$$$
>  <SUBSTANCE>
MQRLGAD (peptide)

>  <REPORTED RESULT>
6

$$$$

substance VRGTPNH (peptide) , Count observed: 6

Entry DSYLLSA (peptide) ; Count = 8

Input GSPYGWG (peptide) . Output Count: 6

* * *

Tested on: Laminin 421/521
ASSAY COMMENT: Phage display library screening (Example 2), NEB laminin-binding peptides
Set-up: species or system human
SETUP CONDITIONS: Laminin 421/521, not 211 and 411; combined unique sequence count, Python/R script analysis
Hi! Just check whether Count is below 30. Below gives Condition met, equal or above gives Condition not met.

Use the examples below as a reference point.
>  <SUBSTANCE>
WVAAERR (Laminin 421/521-binding peptide)

>  <ASSIGNED CLASS>
Condition not met

$$$$
>  <SUBSTANCE>
EDRMMTYRYTST (Laminin 421/521-binding peptide)

>  <ASSIGNED CLASS>
Condition met

$$$$
>  <SUBSTANCE>
GKPDHRLVSLWR (Laminin 421/521-binding peptide)

>  <ASSIGNED CLASS>
Condition not met

$$$$
>  <SUBSTANCE>
CTDGRNFVC (Laminin 421/521-binding peptide)

>  <ASSIGNED CLASS>
Condition met

$$$$
>  <SUBSTANCE>
SHDVANGTSVRT (Laminin 421/521-binding peptide)

>  <ASSIGNED CLASS>
Condition met

$$$$
>  <SUBSTANCE>
CLQKNHKFC (Laminin 421/521-binding peptide)

>  <ASSIGNED CLASS>
Condition met

$$$$
>  <SUBSTANCE>
TILKPAAQGFAD (Laminin 421/521-binding peptide)

>  <ASSIGNED CLASS>
Condition met

$$$$
>  <SUBSTANCE>
GGYDLPWANWQN (Laminin 421/521-binding peptide)

>  <ASSIGNED CLASS>
Condition not met

$$$$

Is 30 strictly greater than the substance's reported Count? substance: RALDRYLPWSPH (Laminin 421/521-binding peptide) Condition met

* * *

SYSTEM TESTED: Human Myelin Basic Protein (Homo sapiens, UniProt P02686)
ASSAY COMMENT: Phage display library screening (Example 2, Python script analysis), binding to Human Myelin Basic Protein
Parameters: Enzo 200-606-M001 from human; purchased Enzo 200-606-M001; host or cells: human brain (tissue-derived)
SETUP CONDITIONS: R3 Myelin Basic Protein; combined unique sequence count, Python/R script analysis
Sequence (P02686 134-304): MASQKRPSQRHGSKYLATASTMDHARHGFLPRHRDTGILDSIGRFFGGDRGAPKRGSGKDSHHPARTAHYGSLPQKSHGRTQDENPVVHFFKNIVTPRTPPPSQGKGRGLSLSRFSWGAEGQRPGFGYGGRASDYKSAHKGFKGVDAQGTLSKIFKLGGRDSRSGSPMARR
If the reported Count equals or exceeds 7, assign fulfilled. If not, assign not fulfilled.

Solved entries (count: 5):
>  <SUBSTANCE>
LPMRILT (R3 Myelin Basic Protein-binding peptide)

>  <ASSIGNED CLASS>
fulfilled

$$$$
>  <SUBSTANCE>
NLTYLRF (R3 Myelin Basic Protein-binding peptide)

>  <ASSIGNED CLASS>
not fulfilled

$$$$
>  <SUBSTANCE>
QQAHLQS (R3 Myelin Basic Protein-binding peptide)

>  <ASSIGNED CLASS>
fulfilled

$$$$
>  <SUBSTANCE>
NTPKVLA (R3 Myelin Basic Protein-binding peptide)

>  <ASSIGNED CLASS>
fulfilled

$$$$
>  <SUBSTANCE>
QNTGLKW (R3 Myelin Basic Protein-binding peptide)

>  <ASSIGNED CLASS>
fulfilled

$$$$

State whether the measured Count reaches 7, counting equality as reaching it, for HSSATMS (R3 Myelin Basic Protein-binding peptide) not fulfilled

State whether the measured Count reaches 7, counting equality as reaching it, for WDLPQNR (R3 Myelin Basic Protein-binding peptide) not fulfilled

Dear colleague, could you confirm whether HQMRTML (R3 Myelin Basic Protein-binding peptide) has Count at or above 7? not fulfilled

Is Count at least 7? Consider KNSIAPR (R3 Myelin Basic Protein-binding peptide) fulfilled

Is Count for TPVLWLP (R3 Myelin Basic Protein-binding peptide) at or above 7? not fulfilled

Given SPKPDIP (R3 Myelin Basic Protein-binding peptide) , state whether its Count is at least 7. not fulfilled

Would you say HFTFFPI (R3 Myelin Basic Protein-binding peptide) shows Count at minimum 7? not fulfilled

Can SPDRTSL (R3 Myelin Basic Protein-binding peptide) be said to have Count at or above 7? fulfilled

API: above_or_equal(metric=Count, cutoff=7) for item GRHTDVV (R3 Myelin Basic Protein-binding peptide) not fulfilled

Is it the case that SSMRYNS (R3 Myelin Basic Protein-binding peptide) has Count reaching or exceeding 7? not fulfilled

Is the recorded value of Count equal to or greater than 7 for this substance? WTMKPNY (R3 Myelin Basic Protein-binding peptide) fulfilled

# check: Count of FSARTNT (R3 Myelin Basic Protein-binding peptide) is greater than or equal to 7 fulfilled

Threshold query (Count >= 7) on TGNLRLY (R3 Myelin Basic Protein-binding peptide) fulfilled

Please indicate if the recorded Count for HAHWARL (R3 Myelin Basic Protein-binding peptide) meets or exceeds 7. not fulfilled

Textbook exercise: given the entry HQPLFPR (R3 Myelin Basic Protein-binding peptide) , state whether its Count is greater than or equal to 7. not fulfilled

Check the entry DSYLLSA (R3 Myelin Basic Protein-binding peptide) : does Count equal or exceed 7? fulfilled

Would you say RGHPSQL (R3 Myelin Basic Protein-binding peptide) shows Count at minimum 7? not fulfilled

Please indicate if the recorded Count for HPWLGNR (R3 Myelin Basic Protein-binding peptide) meets or exceeds 7. fulfilled

Record VPTLRIP (R3 Myelin Basic Protein-binding peptide) ; criterion: Count no lower than 7. Met? fulfilled

* * *

SYSTEM TESTED: Human Myelin Basic Protein (Homo sapiens, UniProt P02686)
ASSAY COMMENT: phage display, NGS count
RESULT TYPE: Count
Please reply with the number alone, leaving off any unit.

// below: answered substances
>  <SUBSTANCE>
HSGPLLP (peptide)

>  <SYSTEM TESTED>
Human Myelin Basic Protein (Homo sapiens, UniProt P02686)

>  <Count>
6

$$$$
>  <SUBSTANCE>
HQPLFPR (peptide)

>  <SYSTEM TESTED>
Human Myelin Basic Protein (Homo sapiens, UniProt P02686)

>  <Count>
6

$$$$
>  <SUBSTANCE>
HPDTLPQ (peptide)

>  <SYSTEM TESTED>
Human Myelin Basic Protein (Homo sapiens, UniProt P02686)

>  <Count>
7

$$$$

So, TQMTMDS (peptide) ? Its Count was 10

Reported Count ( TTTQGHP (peptide) ) = 6

Value of Count reported for the substance SRHLPPL (peptide) is 6

* * *

SYSTEM TESTED: Human Myelin PLP (human)
ASSAY COMMENT: phage display R3, NGS count
Count reference
Format: numeric value only, no unit, no commentary.

Guide cases for Count, answers given:
>  <SUBSTANCE>
FPVVTRN (peptide)

>  <Count>
42

$$$$
>  <SUBSTANCE>
YTPMGTG (peptide)

>  <Count>
50

$$$$
>  <SUBSTANCE>
SMWSQFR (peptide)

>  <Count>
34

$$$$

Count recorded for this substance, GLIRHYT (peptide) , is 66

The recorded Count for TNPWKPH (peptide) is 62

Note to self: Count recorded for MTPHTSC (peptide) was 62

Lab note: measured Count of NPNWRTI (peptide) was 34

Form: substance = DTSRTME (peptide) ; Count = 33

Recorded result, FKMPIPT (peptide) , Count: 34

Sample LTHHFAP (peptide) ; Count observed: 40

* * *

Count values by entry
SYSTEM TESTED: Human Myelin Basic Protein (Homo sapiens, UniProt P02686)
ASSAY COMMENT: phage display, NGS count
# print the numeric value only

// solved cases for Count follow
>  <SUBSTANCE>
SLDHLRL (peptide)

>  <Count>
6

$$$$
>  <SUBSTANCE>
TPLYLSS (peptide)

>  <Count>
7

$$$$
>  <SUBSTANCE>
TGSVSKQ (peptide)

>  <Count>
6

$$$$
>  <SUBSTANCE>
NTSLSFK (peptide)

>  <Count>
8

$$$$
>  <SUBSTANCE>
HAHWARL (peptide)

>  <Count>
6

$$$$
>  <SUBSTANCE>
RTTDWWT (peptide)

>  <Count>
6

$$$$
>  <SUBSTANCE>
VAHQRVS (peptide)

>  <Count>
8

$$$$
>  <SUBSTANCE>
LELHQNV (peptide)

>  <Count>
6

$$$$
>  <SUBSTANCE>
LPPQISR (peptide)

>  <Count>
8

$$$$
>  <SUBSTANCE>
HSSATMS (peptide)

>  <Count>
6

$$$$

Query SGPFPLV (peptide) yields Count of 6
